From various publications: Ki for Histamine receptor H3 (Macaca mulatta).
Expressed in nM, but write only the number.

Solved entries (count: 5):
[
  {
    "MOLECULE": "C[C@H]1CCCN1C1CC[C@H](c2ccc(NC(=O)c3ccc(F)cc3)cc2)C1 (stereo partly shown)",
    "TARGET_ENTITY": "Histamine receptor H3 (Macaca mulatta)",
    "Ki (nM)": 34.9
  },
  {
    "MOLECULE": "Cc1cc(N2CCC(CN3CCCC3C)C2)ccc1NC(=O)c1ccc2c(c1)CCO2 (stereo not shown)",
    "TARGET_ENTITY": "Histamine receptor H3 (Macaca mulatta)",
    "Ki (nM)": 40.4
  },
  {
    "MOLECULE": "C[C@H]1CCCN1[C@H]1CCN(c2ncc(N3CCC4(CCN(C(=O)OC(C)(C)C)CC4)C3=O)cn2)C1",
    "TARGET_ENTITY": "Histamine receptor H3 (Macaca mulatta)",
    "Ki (nM)": 48.5
  },
  {
    "MOLECULE": "CC(=O)N1CCCC(c2ccc(C(=O)Nc3ccc(N4CCC(CN5CCCC5C)C4)cc3C)cc2)C1 (stereo not shown)",
    "TARGET_ENTITY": "Histamine receptor H3 (Macaca mulatta)",
    "Ki (nM)": 29.8
  },
  {
    "MOLECULE": "COc1ccc2[nH]c(C(=O)Nc3ccc(N4CCC(CN5CCCC5C)C4)cc3C)cc2c1 (stereo not shown)",
    "TARGET_ENTITY": "Histamine receptor H3 (Macaca mulatta)",
    "Ki (nM)": 61.5
  }
]

In plain terms, C[C@H]1CCCN1C1CC[C@H](c2ccc(NC(=O)c3ccccc3OC(F)(F)F)cc2)C1 (stereo partly shown) has a documented Ki of 136

In plain terms, C[C@H]1CCCN1C1CC[C@H](c2ccc(NC(=O)Cc3ccccc3)cc2)C1 (stereo partly shown) has a documented Ki of 71.4

In plain terms, Cc1ccccc1C(=O)Nc1ccc([C@H]2CCC(N3CCC[C@@H]3C)C2)cc1 (stereo partly shown) has a documented Ki of 32.6

In plain terms, `Cc1nc(N2CC[C@@H](N3CCC[C@@H]3C)C2)ccc1N1CCCC2(CCOCC2)C1=O` has a documented Ki of 95.1

In plain terms, Cc1noc(C)c1C(=O)Nc1ccc([C@H]2CCC(N3CCC[C@@H]3C)C2)cc1 (stereo partly shown) has a documented Ki of 6.01

In plain terms, `C[C@H]1CCCN1[C@H]1CCN(c2ccc(N3CCC4(CCCCC4)C3=O)c(F)c2)C1` has a documented Ki of 41.6

In plain terms, `C[C@H]1CCCN1[C@H]1CCN(c2ccc(N3CCC4(CCOCC4)C3=O)nc2)C1` has a documented Ki of 22.3

In plain terms, `C[C@H]1CCCN1[C@H]1CCN(c2ccc3cc(C(=O)NC4CCOCC4)ccc3c2)C1` has a documented Ki of 2.99

In plain terms, `Cc1cc(N2CC[C@H](N3CCC[C@@H]3C)C2)ccc1N1CCC2(CCCCC2)C1=O` has a documented Ki of 10.6

In plain terms, `Cc1nc(N2CC[C@H](N3CCC[C@@H]3C)C2)ccc1N1CCC2(CCN(C(=O)OC(C)(C)C)CC2)C1=O` has a documented Ki of 95.5

In plain terms, COCCNC(=O)c1ccc(C(=O)Nc2ccc(N3CCC(CN4CCCC4C)C3)cc2C)cn1 (stereo not shown) has a documented Ki of 32.3

* * *

From various publications: pKi for Histamine receptor H3 (Macaca mulatta, UniProt Q865E1).
Just so you know, pKi here is -log10 of the concentration in molar units; reply with that number alone.

Summary: `Cc1cc(N2CC[C@H](N3CCC[C@@H]3C)C2)ccc1C(=O)NC1CCOCC1` , Histamine receptor H3 (Macaca mulatta, UniProt Q865E1), pKi = 8.82

Summary: `C[C@H]1CCCN1[C@H]1CCN(c2ccc(C(=O)NCC3CCOCC3)cc2)C1` , Histamine receptor H3 (Macaca mulatta, UniProt Q865E1), pKi = 8.91

Summary: C[C@H]1CCCN1C1CC[C@H](c2ccc(NS(=O)(=O)C3CC3)cc2)C1 (some centres unmarked) , Histamine receptor H3 (Macaca mulatta, UniProt Q865E1), pKi = 7.47

Summary: Cc1ccc2c(O)c(C(=O)Nc3ccc(N4CCC(CN5CCCC5C)C4)cc3C)cnc2n1 (centres unmarked) , Histamine receptor H3 (Macaca mulatta, UniProt Q865E1), pKi = 7.72

Summary: Cc1ccc(F)cc1C(=O)Nc1ccc([C@H]2CCC(N3CCC[C@@H]3C)C2)cc1 (some centres unmarked) , Histamine receptor H3 (Macaca mulatta, UniProt Q865E1), pKi = 7.34

Summary: Cc1cc(N2CCC(CN3CCCC3C)C2)ccc1NC(=O)c1ccc(COCc2ccccc2)nc1 (centres unmarked) , Histamine receptor H3 (Macaca mulatta, UniProt Q865E1), pKi = 7.02

Summary: C[C@H]1CCCN1C1CC[C@H](c2ccc(NC(=O)C3CCOCC3)cc2)C1 (some centres unmarked) , Histamine receptor H3 (Macaca mulatta, UniProt Q865E1), pKi = 7.47

Summary: `C[C@H]1CCCN1C1CCN(c2ccc(N3CCC4(CCCCC4)C3=O)c(N)c2)CC1` , Histamine receptor H3 (Macaca mulatta, UniProt Q865E1), pKi = 7.94

Summary: C[C@H]1CCCN1C1CC[C@H](c2ccc(NC(=O)c3ccc(OC(F)(F)F)cc3)cc2)C1 (some centres unmarked) , Histamine receptor H3 (Macaca mulatta, UniProt Q865E1), pKi = 7.31

Summary: C[C@H]1CCCN1C1CC[C@H](c2ccc(NS(=O)(=O)c3ccc(F)c(F)c3)cc2)C1 (some centres unmarked) , Histamine receptor H3 (Macaca mulatta, UniProt Q865E1), pKi = 7.56

Summary: CC1=NN(c2ccc(C(=O)Nc3ccc(N4CCC(CN5CCCC5C)C4)cc3C)cc2)C(=O)C1 (centres unmarked) , Histamine receptor H3 (Macaca mulatta, UniProt Q865E1), pKi = 7.23

* * *

From various publications: pKi for Histamine receptor H3 (Macaca mulatta, UniProt Q865E1).
Just so you know, pKi here is -log10 of the concentration in molar units; reply with that number alone.

Solved entries (count: 5):
[
  {
    "MOLECULE": "C[C@H]1CCCN1[C@@H]1CCN(c2ccc(N3CCC4(CCCCC4)C3=O)c(N)c2)C1",
    "TARGET_ENTITY": "Histamine receptor H3 (Macaca mulatta, UniProt Q865E1)",
    "VAL": 7.45
  },
  {
    "MOLECULE": "Cc1nc(N2CC[C@H](N3CCC[C@@H]3C)C2)ccc1N1CCC2(CCNCC2)C1=O",
    "TARGET_ENTITY": "Histamine receptor H3 (Macaca mulatta, UniProt Q865E1)",
    "VAL": 8.12
  },
  {
    "MOLECULE": "C[C@H]1CCCN1C1CC[C@H](c2ccc(N3CCC4(CCCCC4)C3=O)cc2)C1 (stereo partly drawn)",
    "TARGET_ENTITY": "Histamine receptor H3 (Macaca mulatta, UniProt Q865E1)",
    "VAL": 7.89
  },
  {
    "MOLECULE": "Cc1cc(N2CCC(CN3CCCC3C)C2)ccc1NC(=O)c1cnc(NCCO)c(Cl)c1 (stereo not drawn)",
    "TARGET_ENTITY": "Histamine receptor H3 (Macaca mulatta, UniProt Q865E1)",
    "VAL": 7.29
  },
  {
    "MOLECULE": "Cc1cc(N2CCC(CN3CCCC3C)C2)ccc1NC(=O)c1ccc2c(c1)OCO2 (stereo not drawn)",
    "TARGET_ENTITY": "Histamine receptor H3 (Macaca mulatta, UniProt Q865E1)",
    "VAL": 7.47
  }
]

# next molecule below
In plain terms, `C[C@H]1CCCN1[C@H]1CCN(c2ccc(N3CCC4(CCCCC4)C3=O)cc2)C1` has a documented pKi of 8.19

* * *

From various publications: Ki for UniProt:Q865E1.
Labelling field: enter yes (1) if recorded Ki is less than 80 nM. Enter no (0) if it equals or exceeds that cut-off.

[
  {
    "COMPOUND": "Cc1cc(N2CCC(CN3CCCC3C)C2)ccc1NC(=O)c1ccc2cc[nH]c2c1 (stereo not drawn)",
    "GROUP": "yes (1)"
  }
]

Please state whether Ki is below 80 nM for `C[C@H]1CCCN1[C@H]1CCN(c2cnc(N3CCC4(CCN(C(=O)OC(C)(C)C)CC4)C3=O)cn2)C1`
no (0)

Please state whether Ki is below 80 nM for CC(=O)N1CCC(C(=O)Nc2ccc([C@H]3CCC(N4CCC[C@@H]4C)C3)cc2)CC1 (stereo partly drawn)
no (0)

Please state whether Ki is below 80 nM for Cc1nc(N2CC[C@@H](N3CCC[C@@H]3C)C2)ccc1N1CCC2(CCC(O)CC2)C1=O (stereo partly drawn)
no (0)

Please state whether Ki is below 80 nM for C[C@H]1CCCN1C1CC[C@H](c2ccc(NC(=O)c3cccs3)cc2)C1 (stereo partly drawn)
yes (1)

Please state whether Ki is below 80 nM for CC1CCCN1C1CC[C@H](c2ccc(N3CCC4(CCC(O)CC4)C3=O)cc2)C1 (stereo partly drawn)
yes (1)
